# Procedure details: qHTS assay to identify small molecule agonists of the estrogen receptor alpha (ER-alpha) signaling pathway in the presence of an antagonist - cell viability counter screen (AID 1259386);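 also: cells exposed to compounds for 22 h at 37 °C before the viability read; nearly all actives have a fitted effect of over 30% in size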
# Study conditions: VM7Luc4E2 viability, CellTiter-Fluor fluorescence, 22 h; series mostly up to 92.4 µM
Inconclusive results are not listed. The source made the active and inactive calls. Calls follow the shape of the dose curve; as a rule, active = well fitted cell-killing curve with a large enough effect in the repeat runs; inconclusive = weak or mixed curves, or effect the other way; inactive = no such curve, though single readings can be large or run the other way.
Labels: True = active, False = inactive

{"columns": ["Compound", "Class name"],
 "data": [
  ["C=CS(=O)(=O)O", "False"],
  ["CC(C)C(=O)c1c(C(C)C)nn2ccccc12", "False"],
  ["CCc1ccc(C(c2ccc(CC)cc2)C(Cl)Cl)cc1", "False"],
  ["Oc1c(Cl)cc(Cl)c(Cl)c1Cc1c(O)c(Cl)cc(Cl)c1Cl", "True"],
  ["CC1COc2c(N3CCN(C)CC3)c(F)cc3c(=O)c(C(=O)O)cn1c23 (stereo unspecified)", "False"],
  ["CC[C@H]1CN2CCc3cc(OC)c(OC)cc3[C@@H]2C[C@@H]1C[C@H]1NCCc2cc(OC)c(OC)cc21", "True"]
]}
